This collection of values is drawn from PubChem BioAssay (NCI).

- Test system: SF-539 CNS
- measurement description: NCI tumour cell line growth inhibition, 48 h
Below, each of the compounds is paired with its reported TGI value.

Some compounds with recorded TGI:
### Prompt Reported TGI for SF-539 CNS, given NC1=NS(=O)(=O)Nc2nc(-c3ccccc3)c(-c3ccccc3)nc21 ?
### Response > 100 µM

### Prompt Query Cc1cccc(-c2nnc3s/c(=C\c4ccc5c(c4)OCO5)c(=O)n23)c1 next
### Response > 100 µM

### Prompt Query COc1ccc(C(=O)N/N=C2\C(=O)c3c(C)cc(C)cc3CC2(C)C)cc1 next
### Response 46 µM

### Prompt Query CC1CCN(CCC(=O)CC(c2ccccc2)c2c(O)c3ccccc3oc2=O)CC1 (stereo not drawn) next
### Response > 100 µM

We next turn to a different compound, shown below.
### Prompt Reported TGI for SF-539 CNS, given COC(=O)[C@@]12CCCC(=O)[C@@H]1[C@H]1CCC[C@H]12 ?
### Response > 100 µM

* * *

- Tested on: 786-0 renal
- measurement description: NCI tumour cell line growth inhibition, 48 h
observation type: GI50

Some compounds with recorded GI50:
### Prompt Reported GI50 for 786-0 renal, given Cc1ccc(S(=O)(=O)NC2=NCCN2C(=S)SN2CCn3c2nsc3=S)cc1 ?
### Response 19.1 µM

### Prompt Query CSCCC(NC(=O)CNC(=O)C(CC(=O)O)NC(=O)C(NC(=O)C(NC(=O)C(NC(=O)CNC(=O)C(CCC(N)=O)NC(=O)C(CCSC)NC(=O)C(CC(=O)O)NC(=O)C(C)NC(=O)C(C)NC(=O)C(NC(=O)C(CO)NC(=O)C(N)CC(C)C)C(C)O)C(C)C)C(C)C)C(C)O)C(=O)NC(C)C(=O)NC(CO)C(=O)NCC(=O)NC(CC(C)C)C(=O)NC(CC(=O)O)C(=O)NC(CCCCN)C(=O)NC(CC(=O)O)C(=O)NC(Cc1ccc(O)cc1)C(=O)NC(CC(C)C)C(=O)NC(CCCCN)C(=O)N1CCCC1C(=O)NC(CC(=O)O)C(=O)NC(CC(=O)O)C(=O)O (centres undefined) next
### Response > 82.5 µM

### Prompt Query CCCN1C(=O)/C(=C/c2cccc(O)c2)SC1=Nc1ccccc1 next
### Response 20.7 µM

New cases:
### Prompt Reported GI50 for 786-0 renal, given [Co+2].[O-]c1ccccc1C=NCc1ccccc1.[O-]c1ccccc1C=NCc1ccccc1 ?
### Response 34.7 µM

* * *

- Tested on: A549 NSCLC
- measurement description: NCI tumour cell line growth inhibition, 48 h
observation type: TGI

Some molecules with recorded TGI:
### Prompt Reported TGI for A549 NSCLC, given C=C(CN(C)C)C(=O)c1ccc(OC2OC(COC(C)=O)C(OC(C)=O)C(OC(C)=O)C2OC(C)=O)cc1 (stereo not given) ?
### Response 45.2 µM

### Prompt Query Cc1ccc2nc(-n3c(/C=C/c4ccccc4O)nc4ccccc4c3=O)sc2c1 next
### Response > 100 µM

### Prompt Query O=S(=O)(O)c1ccc(N=Nc2ccc(N=Nc3c(O)ccc4ccccc34)c(S(=O)(=O)O)c2)cc1 next
### Response > 100 µM

### Prompt Query CC1=NN(c2nc(N)nc(COCc3nc(N)nc(N4N=C(C)CC4(C)C)n3)n2)C(C)(C)C1 next
### Response > 100 µM

### Prompt Query CCCCCCCCCCCC(=O)c1c(O)cc(C)oc1=O next
### Response > 100 µM

### Prompt Query COc1ccc2c(c1)OCC1c3cc(O)ccc3OC21 (stereo not given) next
### Response > 100 µM

New cases:
### Prompt Reported TGI for A549 NSCLC, given O=C1/C(=C/c2cccc([N+](=O)[O-])c2)N=C(c2ccccc2)N1c1nc2c(Cl)cc(Cl)cc2s1 ?
### Response 52.2 µM

### Prompt Query Cc1cc(C)c(C#N)c(SCC(=O)c2sc3c(C#N)c(C)cc(C)[n+]3c2[O-])n1 next
### Response > 100 µM

### Prompt Query NC1=NS(=O)(=O)Nc2nc(-c3ccccc3)c(-c3ccccc3)nc21 next
### Response > 100 µM

### Prompt Query CC1CCCP(=O)(c2ccccc2)CC1 (stereo not given) next
### Response > 100 µM

* * *

- System: HCC-2998 colon
- measurement description: NCI tumour cell line growth inhibition, 48 h
observation type: TGI

### Prompt Consider the compound shown here: CN(C)CCc1ccc(Cl)cc1Cl What is its recorded TGI?
### Response > 100 µM

### Prompt Query CS(=O)(=O)Nc1ccc(Nc2c3ccccc3nc3cc(N)ccc23)cc1 next
### Response 24.4 µM

### Prompt Query CC(C)c1cccc(C(C)C)c1NC(=S)N=Nc1cc(C(C)(C)C)c(O)c(C(C)(C)C)c1 next
### Response 54.3 µM

### Prompt Query O=S(=O)(O)c1cc(N=Nc2c(O)ccc3ccccc23)c2c(S(=O)(=O)O)cccc2c1 next
### Response > 100 µM

### Prompt Query CN1C(=O)N(C)C2C1NN=c1s/c(=C\c3ccccc3F)c(=O)n12 (stereo not given) next
### Response > 100 µM

* * *

- Tested on: NCI-H522 lung
- measurement description: NCI tumour cell line growth inhibition, 48 h
observation type: TGI (µM)
Report only the number, with the unit µM understood.

Some compounds with recorded TGI:
### Prompt Consider the compound shown here: CS(=O)(=O)Nc1ccc(Nc2c3ccccc3nc3cc(N)ccc23)cc1 What is its recorded TGI?
### Response 2.69

### Prompt Query CCCCCc1cc2cc3c(c(O)c2c(=O)[nH]1)C1(CC3)C(O)=c2c(=O)c3c(=O)cc(OC)c(=O)c=3c(=O)c2=C1O (stereo not given) next
### Response 1.69

### Prompt Query Nc1cc(N)c2nc(-c3ccccc3)c(Sc3ccc(Cl)c(Cl)c3)nc2c1 next
### Response 34

### Prompt Query CCN(CC)CCNc1ccc2ncn3c4ccccc4c(=O)c1c23 next
### Response 12.3

We next turn to a different compound, shown below.
### Prompt Consider the compound shown here: CC1=C(C(=O)Nc2cc(F)c(F)cc2F)C(c2ccc3c(c2)OCO3)C(C(=O)Nc2cc(F)c(F)cc2F)=C(C)N1 What is its recorded TGI?
### Response 41.6

* * *

- Tested on: OVCAR-3 ovarian
- measurement description: NCI tumour cell line growth inhibition, 48 h
observation type: TGI (µM)
Report only the number, with the unit µM understood.

### Prompt Consider the compound shown here: COc1ccc(C(=O)n2nc(/C=C/c3ccc(O)c(OC)c3)cc2/C=C/c2ccc(O)c(OC)c2)cc1 What is its recorded TGI?
### Response 2.28

### Prompt Query COc1ccc2nc(C)cc(NCCCCCCCCCNc3cc(C)nc4ccc(OC)cc34)c2c1 next
### Response 2.76

### Prompt Query N#CC(C#N)N=Nc1ccc(-c2nc3ccccc3[nH]2)cc1 next
### Response 37.8

We next turn to a different compound, shown below.
### Prompt Consider the compound shown here: Cc1ccc(NCCN2CCCCC2)c2c(=O)c3ccccc3sc12 What is its recorded TGI?
### Response 17.6

* * *

- Tested on: CCRF-CEM leukemia
- measurement description: NCI tumour cell line growth inhibition, 48 h
Below, each of the compounds is paired with its reported TGI value.
Report only the number, with the unit µM understood.

Some compounds with recorded TGI:
### Prompt Consider the compound shown here: CC(=O)N1N=C(c2cc(C)ccc2O)CC1c1cccc(Cl)c1 (stereo not given) What is its recorded TGI?
### Response 57.8

### Prompt Query CC(=O)CC(=O)Nc1c(C)[c]([Hg][O]C(C)=O)c(C)[c]([Hg][O]C(C)=O)[c]1[Hg][O]C(C)=O next
### Response 49.5

We next turn to a different compound, shown below.
### Prompt Consider the compound shown here: Cc1ccc(S(=O)(=O)NC2C(=O)c3ccccc3C(=O)C2n2ccnc2)cc1 (stereo not given) What is its recorded TGI?
### Response 52.9

* * *

- Tested on: UO-31 renal
- measurement description: NCI tumour cell line growth inhibition, 48 h
observation type: GI50

Some molecules with recorded GI50:
### Prompt Reported GI50 for UO-31 renal, given O=C1/C(=C/c2ccc(O)c(O)c2)COc2ccc(-c3ccccc3)cc21 ?
### Response 1220 nM

### Prompt Query COc1ccc2c(c1)CCC1C2CCC2(C)C3=CC(O)CCC3CC12 (stereo not given) next
### Response 19800 nM

### Prompt Query Cn1c2c(c3ccc(-c4ccn[nH]4)cc3c1=O)C(=O)c1ccccc1-2 next
### Response 1500 nM

New cases:
### Prompt Reported GI50 for UO-31 renal, given Cc1cc(C(=O)NC(C)(C)C)cc(C#Cc2ccc3c4c(oc3c2)C(C)(C)c2cc(NS(C)(=O)=O)ccc2C4=O)n1 ?
### Response 1200 nM

### Prompt Query C[C@H](O)CNc1cc(-c2[nH]c3cccnc3c2-c2ccc(F)cc2)ccn1 next
### Response 4080 nM
